- Tested on: MDA-MB-231
- test-description: Inhibition of epithelial growth factor-induced cell migration of human MDA-MB-231 cells pre-incubated for 24 hrs by cell invasion assay
- Assay type: functional, cell-based
assay-endpoint: IC50 (nM)

These solved cases illustrate the format of a correct answer.
compound	subject-of-test	recorded-value
CC(C)[C@@H]1CN([C@H]2CC[C@@]3(C)[C@@H](CC[C@@H]4[C@@H]3CC[C@]3(C)[C@@H]([C@H](C)N(C)C)CC[C@@H]43)C2=O)C1=O	MDA-MB-231	320
C[C@@H]([C@H]1CC[C@H]2[C@@H]3CC[C@H]4[C@H](O)[C@@H](O)CC[C@]4(C)[C@H]3CC[C@]12C)N(C)C	MDA-MB-231	360
CC(C)=C1CN([C@@H]2CC[C@@]3(C)[C@@H](CC[C@@H]4[C@@H]3CC[C@]3(C)[C@@H]([C@H](C)N(C)C)[C@@H](O)C[C@@H]43)[C@H]2O)C1=O	MDA-MB-231	200
CC(C)[C@H]1CN([C@H]2CC[C@@]3(C)[C@@H](CC[C@@H]4[C@@H]3CC[C@]3(C)[C@@H]([C@H](C)N(C)C)[C@@H](O)C[C@@H]43)C2=O)C1=O	MDA-MB-231	180

(I) CC(C)[C@@H]1CN([C@H]2CC[C@@]3(C)[C@@H](CC[C@@H]4[C@@H]3CC[C@]3(C)[C@@H]([C@H](C)N(C)C)CC[C@@H]43)[C@H]2O)C1=O
(II) CC(C)=CC(=O)N[C@H]1CC[C@@]2(C)[C@@H](CC[C@@H]3[C@@H]2CC[C@]2(C)[C@@H]([C@H](C)N(C)C)CC[C@@H]32)C1 [EPIPACHYSAMINE E]
(III) C/C=C1\C(=O)C[C@H]2[C@@H]3CC[C@H]4C[C@@H](N(C)C)CC[C@]4(C)[C@H]3CC[C@]12C
(IV) CC(=O)O[C@@H]1C[C@H](N2C[C@H](C(C)C)C2=O)[C@H](O)[C@@H]2CC[C@@H]3[C@H]([C@H](OC(=O)CC(C)C)C[C@]4(C)[C@@H]([C@H](C)N(C)C)[C@@H](O)C[C@@H]34)[C@@]12C
Query: // ranking: key=IC50, reverse=True Respond with an ordered listing of the labels, as requested.
Reply: III, II, I, IV
